Reference source: patent US10294488B2

Tested on: AmCYP03_1 (Seq ID 4)
Assay method text: Herbicide degradation in transgenic yeast cells expressing cytochrome P450 AmCYP03_1
Type: in vitro ADME, Alopecurus myosuroides
Measurement parameters: transgenic yeast cells (S. cerevisiae BJ5459) expressing AmCYP03_1, Seq ID 4, recovery of herbicide in reference to control, UPLC-MS/MS
Please note: Degradation rate of listed herbicidal compounds within 24 h exactly at 10 is 0.0. Only values below 10 get 1.0.

{"columns": ["Compound", "Target", "Classification"],
 "data": [
  ["N#Cc1ccc(C2=C(O)c3ncccc3N(CC(F)F)S2(=O)=O)c(C(F)(F)F)c1", "AmCYP03_1 (Seq ID 4)", 0.0],
  ["O=S1(=O)C(c2c(Cl)cc(Cl)nc2Cl)=C(O)c2ncccc2N1CC(F)F [Coumarone-derivative 1]", "AmCYP03_1 (Seq ID 4)", 0.0],
  ["C#CCN1C(=O)C(F)(F)Oc2cc(F)c(-n3c(=O)n(C)c(=S)n(C)c3=O)cc21 [reference compound]", "AmCYP03_1 (Seq ID 4)", 0.0],
  ["CCC(CC)Nc1c([N+](=O)[O-])cc(C)c(C)c1[N+](=O)[O-] [pendimethalin, reference compound]", "AmCYP03_1 (Seq ID 4)", 0.0],
  ["CC1(C)c2cccnc2C(O)=C(c2ccc(Cl)nc2Cl)S1(=O)=O", "AmCYP03_1 (Seq ID 4)", 1.0],
  ["O=S1(=O)Cc2cccnc2C(O)=C1c1ccccc1C(F)(F)F", "AmCYP03_1 (Seq ID 4)", 1.0],
  ["CC1=NOC(c2c(Cl)ccc(C3=C(O)c4ncccc4C(C)(C)S3(=O)=O)c2Cl)C1 (stereo not drawn)", "AmCYP03_1 (Seq ID 4)", 1.0],
  ["Cc1ccc(NC(=O)N(C)C)cc1Cl [Chlorotoluron, reference compound]", "AmCYP03_1 (Seq ID 4)", 0.0],
  ["COCCOCc1c(Cl)ccc(C2=C(O)c3ncccc3C(C)(C)S2(=O)=O)c1Cl", "AmCYP03_1 (Seq ID 4)", 0.0],
  ["CN(c1c(Cl)ccc(C2=C(O)c3ncccc3C(C)(C)S2(=O)=O)c1Cl)S(C)(=O)=O", "AmCYP03_1 (Seq ID 4)", 0.0],
  ["O=S1(=O)C(c2c(Cl)cc(Cl)nc2Cl)=C(O)c2ncccc2N1CC(F)F [Coumarone-derivative 9]", "AmCYP03_1 (Seq ID 4)", 0.0],
  ["O=S1(=O)Oc2cccnc2C(O)=C1c1c(Cl)cccc1C(F)(F)F", "AmCYP03_1 (Seq ID 4)", 1.0],
  ["Cc1c(Cl)ccc(Cl)c1C1=C(O)c2ncccc2C(C)(C)S1(=O)=O", "AmCYP03_1 (Seq ID 4)", 1.0]
]}

###

Tested on: AmCYP12_1 (Seq ID 45)
Assay method text: Herbicide degradation in transgenic yeast cells expressing cytochrome P450 AmCYP12_1
Format: in vitro ADME, Alopecurus myosuroides
Measurement parameters: transgenic yeast cells (S. cerevisiae BJ5459) expressing AmCYP12_1, Seq ID 45, recovery of herbicide in reference to control, UPLC-MS/MS
Quantity measured: Degradation rate of listed herbicidal compounds within 24 h

{"columns": ["Compound", "Target", "Measurement"],
 "data": [
  ["CC1=NOC(c2c(Cl)ccc(C3=C(O)c4ncccc4C(C)(C)S3(=O)=O)c2Cl)C1 (stereo not shown)", "AmCYP12_1 (Seq ID 45)", 4],
  ["COCCOCc1c(Cl)ccc(C2=C(O)c3ncccc3C(C)(C)S2(=O)=O)c1Cl", "AmCYP12_1 (Seq ID 45)", 5],
  ["O=S1(=O)C(c2c(Cl)cc(Cl)nc2Cl)=C(O)c2ncccc2N1CC(F)F [Coumarone-derivative 1]", "AmCYP12_1 (Seq ID 45)", 10],
  ["CN(c1c(Cl)ccc(C2=C(O)c3ncccc3C(C)(C)S2(=O)=O)c1Cl)S(C)(=O)=O", "AmCYP12_1 (Seq ID 45)", 0],
  ["CC(C)N(C)S(=O)(=O)NC(=O)c1cc(-n2c(=O)cc(C(F)(F)F)n(C)c2=O)c(F)cc1Cl [saflufenacil, reference compound]", "AmCYP12_1 (Seq ID 45)", 20],
  ["CCC(CC)Nc1c([N+](=O)[O-])cc(C)c(C)c1[N+](=O)[O-] [pendimethalin, reference compound]", "AmCYP12_1 (Seq ID 45)", 16],
  ["O=S1(=O)Cc2cccnc2C(O)=C1c1ccccc1C(F)(F)F", "AmCYP12_1 (Seq ID 45)", 27]
]}

###

Tested on: AmCYP03b (Seq ID 6)
Assay method text: Herbicide degradation in transgenic yeast cells expressing cytochrome P450 AmCYP03b
Assay type: in vitro ADME, Alopecurus myosuroides
Measurement parameters: transgenic yeast cells (S. cerevisiae BJ5459) expressing AmCYP03b, recovery of herbicide in reference to control, UPLC-MS/MS
Quantity measured: Degradation rate of listed herbicidal compounds within 24 h

{"columns": ["Compound", "Measurement"],
 "data": [
  ["CC(C)N(C)S(=O)(=O)NC(=O)c1cc(-n2c(=O)cc(C(F)(F)F)n(C)c2=O)c(F)cc1Cl [saflufenacil, reference compound]", 9],
  ["O=S1(=O)Oc2cccnc2C(O)=C1c1c(Cl)cccc1C(F)(F)F", 7],
  ["COCCOCc1c(Cl)ccc(C2=C(O)c3ncccc3C(C)(C)S2(=O)=O)c1Cl", 6],
  ["N#Cc1ccc(C2=C(O)c3ncccc3N(CC(F)F)S2(=O)=O)c(C(F)(F)F)c1", 7],
  ["O=S1(=O)C(c2c(Cl)cc(Cl)nc2Cl)=C(O)c2ncccc2N1CC(F)F [Coumarone-derivative 1]", 18],
  ["O=S1(=O)C(c2c(Cl)cc(Cl)nc2Cl)=C(O)c2ncccc2N1CC(F)F [Coumarone-derivative 9]", 5],
  ["C#CCN1C(=O)C(F)(F)Oc2cc(F)c(-n3c(=O)n(C)c(=S)n(C)c3=O)cc21 [reference compound]", 21]
]}

###

Test system: AmCYP04 (Seq ID 27)
Assay method text: Herbicide degradation in transgenic yeast cells expressing cytochrome P450 AmCYP04
Type: in vitro ADME, Alopecurus myosuroides
Measurement parameters: transgenic yeast cells (S. cerevisiae BJ5459) expressing AmCYP04, Seq ID 27, recovery of herbicide in reference to control, UPLC-MS/MS
Procedure: The cDNA of CYP450 monooxygenase genes were synthesized with an optimized codon usage for yeast, cloned via uniqueBamHI-SalI restriction sites in the low copy pESC-ura expression vector (Agilent Technologies). […] 96 deep well growth plates (STARLAB GmbH) charged with 700 μL SDA medium are inoculated with the respective yeast strains from cryostock and incubated at 30° C., 400 rpm. […] The degradation rate was calculated by the determination of the recovery of the herbicide in reference to the control.
Quantity measured: Degradation rate of listed herbicidal compounds within 24 h

{"columns": ["Molecule", "Measurement"],
 "data": [
  ["O=S1(=O)Oc2cccnc2C(O)=C1c1c(Cl)cccc1C(F)(F)F", 12],
  ["CC(C)N(C)S(=O)(=O)NC(=O)c1cc(-n2c(=O)cc(C(F)(F)F)n(C)c2=O)c(F)cc1Cl [saflufenacil, reference compound]", 18],
  ["CN(c1c(Cl)ccc(C2=C(O)c3ncccc3C(C)(C)S2(=O)=O)c1Cl)S(C)(=O)=O", 19],
  ["O=S1(=O)C(c2c(Cl)cc(Cl)nc2Cl)=C(O)c2ncccc2N1CC(F)F [Coumarone-derivative 1]", 31]
]}

###

Test system: AmCYP01 (Seq ID 2)
Assay method text: Herbicide degradation in transgenic yeast cells expressing cytochrome P450 AmCYP01
Format: in vitro ADME, Alopecurus myosuroides
Measurement parameters: transgenic yeast cells (S. cerevisiae BJ5459) expressing AmCYP01, Seq ID 2, recovery of herbicide in reference to control, UPLC-MS/MS
Quantity measured: Degradation rate of listed herbicidal compounds within 24 h

{"columns": ["Compound", "Measurement"],
 "data": [
  ["Cc1ccc(NC(=O)N(C)C)cc1Cl [Chlorotoluron, reference compound]", 18],
  ["Cc1c(Cl)ccc(Cl)c1C1=C(O)c2ncccc2C(C)(C)S1(=O)=O", 0],
  ["O=S1(=O)Cc2cccnc2C(O)=C1c1ccccc1C(F)(F)F", 0],
  ["COCCOCc1c(Cl)ccc(C2=C(O)c3ncccc3C(C)(C)S2(=O)=O)c1Cl", 0],
  ["O=S1(=O)C(c2c(Cl)cc(Cl)nc2Cl)=C(O)c2ncccc2N1CC(F)F [Coumarone-derivative 9]", 0],
  ["O=S1(=O)Oc2cccnc2C(O)=C1c1c(Cl)cccc1C(F)(F)F", 0]
]}
